system name: glucokinase (GK) (Homo sapiens, UniProt P35557)
Construct: I.D. No. 1 corresponds to residues 12-465 of glucokinase
Sequence (P35557 with tags, fused parts or gaps isoform P35557-2): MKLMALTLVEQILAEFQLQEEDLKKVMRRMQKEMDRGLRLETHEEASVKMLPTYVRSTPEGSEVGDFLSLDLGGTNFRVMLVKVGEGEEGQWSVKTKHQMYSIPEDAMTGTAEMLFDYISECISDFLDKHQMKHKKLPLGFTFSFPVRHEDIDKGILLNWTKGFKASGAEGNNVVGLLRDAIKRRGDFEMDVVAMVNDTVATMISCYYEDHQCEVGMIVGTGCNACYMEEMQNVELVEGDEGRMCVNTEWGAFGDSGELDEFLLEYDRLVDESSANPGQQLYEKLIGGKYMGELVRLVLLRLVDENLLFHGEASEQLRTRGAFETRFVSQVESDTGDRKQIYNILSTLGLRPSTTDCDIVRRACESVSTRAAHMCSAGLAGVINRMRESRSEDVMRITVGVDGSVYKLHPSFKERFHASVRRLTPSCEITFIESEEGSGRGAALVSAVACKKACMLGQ
protocol description: enzymatic glucokinase activity assay (ATP consumption, KinaseGlo luminescence)
assay setup: recombinant GK residues 12-465; 5 μM ATP, 5 mM Glucose; Kact = concentration that displays 50% of the maximal increase in GK activity; read-out: pKact
pEC50: −log10 of the molar value. Counter-ions that a name gives are not always drawn.
measurement type: pEC50

Field: example entries. Status: answers known.
Cc1cc(S(C)(=O)=O)cc(=O)n1C(CC1CCCCC1)C(=O)Nc1nccs1 (stereo not shown) [Example 3, trifluoroacetic acid salt] :: 4.80 to 5.80
Cc1cc(-c2ccccc2)cc(=O)n1[C@@H](CC1CCCCC1)C(=O)Nc1nccs1 [Example 90] :: < 4.80
CS(=O)(=O)c1ccn(C(Cc2c(Cl)cccc2Cl)C(=O)Nc2ncc(Cl)s2)c(=O)c1 (stereo not shown) [Example 17] :: < 4.80

Prompt: Value lookup for pEC50; key = Cc1cc(S(=O)(=O)C2CCCC2)cc(=O)n1C(CC1CCOCC1)C(=O)Nc1nccs1 (stereo not shown) [Example 16]
Completion: 4.80 to 5.80

Prompt: Same lookup for O=C(Nc1ncc(Cl)s1)C(CC1CCOCC1)n1cc(Cl)c(S(=O)(=O)C2CCCC2)cc1=O (stereo not shown) [Example 185] , please.
Completion: 4.80 to 5.80

Prompt: Okay, and Cc1occc1S(=O)(=O)c1cc(C)n([C@H](CC2CCOCC2)C(=O)Nc2ncc(Cl)s2)c(=O)c1 [Example 65] ?
Completion: < 4.80

Prompt: Next up: CCS(=O)(=O)c1cc(C)n(C(CC2CCCCC2)C(=O)Nc2nccs2)c(=O)c1 (stereo not shown) [Example 4, trifluoroacetic acid salt]
Completion: 4.80 to 5.80

The values you see were collected from patent US8163779B2.
